Source listed as the supplement of paper PMC10201428.

B1: library; a variant is named by its letters at N, in order (parent)
chain: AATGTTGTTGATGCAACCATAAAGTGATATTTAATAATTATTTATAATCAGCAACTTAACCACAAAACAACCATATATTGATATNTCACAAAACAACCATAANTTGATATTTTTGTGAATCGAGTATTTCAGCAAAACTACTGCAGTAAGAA

variants of: B1; experiment: relative integration efficiency (T-LR orientation) vs wild-type transposon end (log2 (normalized fold change)); transposon end mutated: left end; higher = more efficient transposition; details: with VchCAST RNA-guided transposition machinery (E. coli BL21(DE3) host, lacZ target)
Each entry below carries its reported relative integration efficiency (log2).

{"var": "CG C94A A95C", "limit_qualifier": "=", "relative integration efficiency (log2)": -0.623}
{"var": "CG C98G", "limit_qualifier": "=", "relative integration efficiency (log2)": -0.135}
{"var": "CG T43G A44C", "limit_qualifier": "=", "relative integration efficiency (log2)": 0.129}
{"var": "TG A22T G24T T31C A33C A70C T76A T84A C87A", "limit_qualifier": "=", "relative integration efficiency (log2)": -0.478}
{"var": "CG A1C A2C T3G G4T", "limit_qualifier": "=", "relative integration efficiency (log2)": -0.0427}
{"var": "CG G13C C14G", "limit_qualifier": "=", "relative integration efficiency (log2)": -0.831}
{"var": "TA G24A T30A T76A A77G C87T T104A T110A T113A", "limit_qualifier": "=", "relative integration efficiency (log2)": 0.503}
{"var": "CG T82C", "limit_qualifier": "=", "relative integration efficiency (log2)": 0.362}
{"var": "CG C14A A15C", "limit_qualifier": "=", "relative integration efficiency (log2)": -0.0841}
{"var": "CG A29T T30A T31A T32A", "limit_qualifier": "=", "relative integration efficiency (log2)": -0.245}
{"var": "TA A22T G24T T31C A33C T76A A77G C87T A96C T112G T113C", "limit_qualifier": "=", "relative integration efficiency (log2)": -0.0329}
{"var": "TG A16C G24T T32G A33C T76A T78A T84A C87A", "limit_qualifier": "=", "relative integration efficiency (log2)": -0.658}
{"var": "CG C94A A95C A96C C97A", "limit_qualifier": "=", "relative integration efficiency (log2)": -1.9}
{"var": "CG A75T T76A A77T T78A", "limit_qualifier": "=", "relative integration efficiency (log2)": -0.0527}
{"var": "CG A109C T110G T111G T112G", "limit_qualifier": "=", "relative integration efficiency (log2)": -1.67}
{"var": "CG C14A C68A C94A", "limit_qualifier": "=", "relative integration efficiency (log2)": -1.29}
{"var": "CG A62G", "limit_qualifier": "=", "relative integration efficiency (log2)": 0.446}
{"var": "CG A101C A102C", "limit_qualifier": "=", "relative integration efficiency (log2)": -1.64}
{"var": "CG T57G A58C A59C C60A", "limit_qualifier": "=", "relative integration efficiency (log2)": -1.48}
{"var": "AG T84G", "limit_qualifier": "=", "relative integration efficiency (log2)": -0.223}
{"var": "CG A37T T38A T39A A40T", "limit_qualifier": "=", "relative integration efficiency (log2)": 0.186}
{"var": "CG A75T", "limit_qualifier": "=", "relative integration efficiency (log2)": -0.0748}
{"var": "CG A46T", "limit_qualifier": "=", "relative integration efficiency (log2)": -0.195}
{"var": "CG T20A T74A T100A", "limit_qualifier": "=", "relative integration efficiency (log2)": -1.01}
{"var": "CC A102T", "limit_qualifier": "=", "relative integration efficiency (log2)": 0.202}
{"var": "CG G24C T25A", "limit_qualifier": "=", "relative integration efficiency (log2)": -0.543}
{"var": "CG A69C", "limit_qualifier": "=", "relative integration efficiency (log2)": -0.309}
{"var": "CG G13T C14A A15C A16C", "limit_qualifier": "=", "relative integration efficiency (log2)": -1.69}
{"var": "CG A58T", "limit_qualifier": "=", "relative integration efficiency (log2)": -1.76}
{"var": "CG A46G", "limit_qualifier": "=", "relative integration efficiency (log2)": -0.0959}
{"var": "CG A67T C68G", "limit_qualifier": "=", "relative integration efficiency (log2)": -0.364}
{"var": "CG A54T C55G", "limit_qualifier": "=", "relative integration efficiency (log2)": 0.202}
{"var": "TA A16C G24T T32G A33C A70C T76A T86G A96C T112G T113C", "limit_qualifier": "=", "relative integration efficiency (log2)": -1.11}
{"var": "CG T30A", "limit_qualifier": "=", "relative integration efficiency (log2)": 0.497}
{"var": "CG T41A T42A A44G A46G T48G A50G G51A C52G A53T C55A T56C T57A A59C", "limit_qualifier": "=", "relative integration efficiency (log2)": 0.615}
{"var": "CG A21T", "limit_qualifier": "=", "relative integration efficiency (log2)": -0.384}
{"var": "CG C49A", "limit_qualifier": "=", "relative integration efficiency (log2)": -0.195}
{"var": "CG T76C", "limit_qualifier": "=", "relative integration efficiency (log2)": -1.37}
{"var": "CG C72A A73C T74G A75C", "limit_qualifier": "=", "relative integration efficiency (log2)": -2.39}
{"var": "CG C14T", "limit_qualifier": "=", "relative integration efficiency (log2)": 0.167}
{"var": "CG A36G A65G A66C", "limit_qualifier": "=", "relative integration efficiency (log2)": -0.205}
{"var": "TG A70C T76A T86G", "limit_qualifier": "=", "relative integration efficiency (log2)": 0.145}
{"var": "CG T110C", "limit_qualifier": "=", "relative integration efficiency (log2)": -0.691}
{"var": "CG T76G A77C T78G T79G", "limit_qualifier": "=", "relative integration efficiency (log2)": -3.06}
{"var": "CG C17A C18A", "limit_qualifier": "=", "relative integration efficiency (log2)": -1.03}
{"var": "TA A23G G24T A33T T76A T78G C87A T104A T110A T113A", "limit_qualifier": "=", "relative integration efficiency (log2)": 0.283}
{"var": "CG T20A A21T", "limit_qualifier": "=", "relative integration efficiency (log2)": -0.406}
{"var": "TA A23G G24T A33T T76A T78G C87A A96C T112G T113C", "limit_qualifier": "=", "relative integration efficiency (log2)": 0.535}
{"var": "CG A109C", "limit_qualifier": "=", "relative integration efficiency (log2)": 0.0163}
{"var": "CG A81T T82A A83T T84A", "limit_qualifier": "=", "relative integration efficiency (log2)": -0.679}
{"var": "CG A50C G51T", "limit_qualifier": "=", "relative integration efficiency (log2)": -0.407}
{"var": "CG A73T", "limit_qualifier": "=", "relative integration efficiency (log2)": -0.055}
{"var": "CG T100A", "limit_qualifier": "=", "relative integration efficiency (log2)": 0.42}
{"var": "CG T114G T120A", "limit_qualifier": "=", "relative integration efficiency (log2)": 0.16}
{"var": "CG G13A T30A T31C T32A A77C T86G", "limit_qualifier": "=", "relative integration efficiency (log2)": -0.338}
{"var": "CG C97G", "limit_qualifier": "=", "relative integration efficiency (log2)": -0.468}
{"var": "CG T30A T31C T32A", "limit_qualifier": "=", "relative integration efficiency (log2)": -0.303}
{"var": "CG T84G", "limit_qualifier": "=", "relative integration efficiency (log2)": -0.943}
{"var": "CG T79A G80C A81T T82A", "limit_qualifier": "=", "relative integration efficiency (log2)": -2.46}
{"var": "AG T86G C87A A88C", "limit_qualifier": "=", "relative integration efficiency (log2)": 0.0813}
{"var": "CT T104G", "limit_qualifier": "=", "relative integration efficiency (log2)": -0.14}
{"var": "AG T82G A83C T84G", "limit_qualifier": "=", "relative integration efficiency (log2)": -1.31}
{"var": "CG A2T T3A", "limit_qualifier": "=", "relative integration efficiency (log2)": 0.399}
{"var": "CG T8A T9A G10C A11T", "limit_qualifier": "<", "relative integration efficiency (log2)": -10}
{"var": "CG C68G A69T A70T C71G", "limit_qualifier": "=", "relative integration efficiency (log2)": -0.963}
{"var": "CG A83C T84G", "limit_qualifier": "=", "relative integration efficiency (log2)": -0.6}
{"var": "CG A54C C55A T56G T57G", "limit_qualifier": "=", "relative integration efficiency (log2)": -2.12}
{"var": "CG C17A C18A A19C T20G", "limit_qualifier": "=", "relative integration efficiency (log2)": -3.01}
{"var": "CG A118C", "limit_qualifier": "=", "relative integration efficiency (log2)": 0.243}
{"var": "CG C94G", "limit_qualifier": "=", "relative integration efficiency (log2)": -1.16}
{"var": "CG C72G A73T", "limit_qualifier": "=", "relative integration efficiency (log2)": -1.6}
{"var": "TG G24A T30A A70C T76A T86G", "limit_qualifier": "=", "relative integration efficiency (log2)": 1.23}
{"var": "CG C71A", "limit_qualifier": "=", "relative integration efficiency (log2)": -0.709}
{"var": "TA A16C G24T T30A T76A T78A T84A C87A T104A T110A T113A", "limit_qualifier": "=", "relative integration efficiency (log2)": 0.114}
{"var": "CG C63G", "limit_qualifier": "=", "relative integration efficiency (log2)": 0.324}
{"var": "CG A21T A22T", "limit_qualifier": "=", "relative integration efficiency (log2)": -0.163}
{"var": "CG T35A", "limit_qualifier": "=", "relative integration efficiency (log2)": 0.179}
{"var": "CG C98G A99T T100A A101T", "limit_qualifier": "=", "relative integration efficiency (log2)": -1.8}
{"var": "CG T38A T39A", "limit_qualifier": "=", "relative integration efficiency (log2)": 0.516}
{"var": "CG C72G", "limit_qualifier": "=", "relative integration efficiency (log2)": -0.262}
{"var": "CG G26C A27T T28A A29T", "limit_qualifier": "=", "relative integration efficiency (log2)": -1.67}
{"var": "TA G24A T30A T76A T78G C87A T104G T113A", "limit_qualifier": "=", "relative integration efficiency (log2)": -0.302}
{"var": "CG T113A", "limit_qualifier": "=", "relative integration efficiency (log2)": -0.342}
{"var": "CG T42A T43A", "limit_qualifier": "=", "relative integration efficiency (log2)": 0.176}
{"var": "CG T110A T111A T112A T113A", "limit_qualifier": "=", "relative integration efficiency (log2)": -0.328}
{"var": "CG T112G", "limit_qualifier": "=", "relative integration efficiency (log2)": -0.249}
{"var": "CG A36C", "limit_qualifier": "=", "relative integration efficiency (log2)": -0.699}
{"var": "CG A109T T110A", "limit_qualifier": "=", "relative integration efficiency (log2)": -0.674}
{"var": "CG G26T A27C T28G A29C", "limit_qualifier": "=", "relative integration efficiency (log2)": -1.37}
{"var": "CG A1T A2T", "limit_qualifier": "=", "relative integration efficiency (log2)": 0.429}
{"var": "TA A16C G24T T32G A33C A70C T76A T84A C87A A102T T111C T113C", "limit_qualifier": "=", "relative integration efficiency (log2)": -1.61}
